// provenance: paper PMC5323132

Assay details: Ex vivo viability (annexin V) of normal hematologic cells
Format: cell-based, human
Settings: human, normal BMMNC and normal hematopoietic stem cells (PBSC); normal cells, 20 μM, 24 hours; read-out: viable cells (percentage of viability of untreated cells)

>  <Molecule>
FC1(F)N=C(c2ccc(Cl)cc2)SC1(F)c1ccc(Cl)cc1 (stereo not shown) [fluorizoline]

>  <viability at 24 h, 20 µM / %>
68.6

$$$$
